Assay: Water solubility of flavoring agents and their flavor glucosides
Conditions: flavoring agent in the form of its flavor glucoside; water
Property: Glucoside water solubility
Respond with a number, then the unit of measure.

CC1(C)C2CC=C(CO[C@@H]3O[C@H](CO)[C@@H](O)[C@H](O)[C@H]3O)C1C2 (stereo partly shown) [Myrtenol glucoside] : 525 mg/mL

Record Glucoside water solubility for all entries; do not skip any.
1. CC1=C(O[C@@H]2O[C@H](CO)[C@@H](O)[C@H](O)[C@H]2O)C(=O)C(C)O1 (stereo partly shown) [Furaneol glucoside]
2. CCCCCCO[C@@H]1O[C@H](CO)[C@@H](O)[C@H](O)[C@H]1O [1-Hexanol glucoside, hex-1-yl-O-β-D-glucopyranoside]
3. C=CC(CCCCC)O[C@@H]1O[C@H](CO)[C@@H](O)[C@H](O)[C@H]1O (stereo partly drawn) [1-Octen-3-ol glucoside, 1-octen-3-yl-O-β-D-glucopyranoside]
4. CC(C)=CCC/C(C)=C/CO[C@@H]1O[C@H](CO)[C@@H](O)[C@H](O)[C@H]1O [Geraniol glucoside]
5. CC(C)=CCCC(C)=CCCC(C)=CCO[C@@H]1O[C@H](CO)[C@@H](O)[C@H](O)[C@H]1O [Farnesol glucoside]
6. C=C(C)C1CC=C(CO[C@@H]2O[C@H](CO)[C@@H](O)[C@H](O)[C@H]2O)CC1 (stereo partly shown) [Perillyl alcohol glucoside]

Key:
1: 731 mg/mL; 2: 676 mg/mL; 3: 200 mg/mL; 4: 627 mg/mL; 5: 1 mg/mL; 6: 485 mg/mL
